# System: KM12 colon
# TEST: NCI tumour cell line growth inhibition, 48 h
READOUT_TYPE: TGI

• C=CC12CCCCC1CC(C(=O)OC)=C(O)C2 (stereo not given) = > 100 µM
• CCC1C(NC(=O)OC)C(=O)N1[C@@H](C)c1ccccc1 (stereo not given in full) = > 100 µM
• COc1c(Sc2c(SCSc3cnc4ccccc4c3Sc3cnc4ccccc4c3OC)cnc3ccccc23)cnc2ccccc12 = > 100 µM
• O=C1CCC2(c3ccc(Cl)cc3)Nc3ccccc3N12 (stereo not given) = > 100 µM
• CN(C)c1ccc(N=C2N=C(Nc3ccccc3)C(=Nc3ccccc3)S2)cc1 = > 100 µM
• Cc1ccc(-c2cc(C(=O)Nc3ccc(S(=O)(=O)N4CCCCC4)cc3)[nH]n2)c(O)c1 = > 100 µM
• CCOc1ccccc1/C=N\N=C(N/N=C/c1ccccc1OCC)N/N=C/c1ccccc1OCC = > 100 µM
• COc1cc2c(cc1OC)[C@@H]1C(=O)c3ccc4c(c3O[C@@H]1CO2)C[C@H](C(C)C)O4 = 26.1 µM
• Cc1ccc(C(=O)NC2CCCCC2)cc1N=NN(C)C = > 100 µM
• O=C(CCN1CCCCC1)Nc1ccc2c(c1)C(=O)c1ccc(NC(=O)CCN3CCCCC3)cc1C2=O = 3.26 µM

====

# Test system: NCI-H460 lung
# TEST: NCI tumour cell line growth inhibition, 48 h
READOUT_TYPE: TGI (µM)

* Cc1cc(C)c2c(=O)n(CC(O)CN(Cc3ccccc3)CC(O)Cn3sc4nc(C)cc(C)c4c3=O)sc2n1 (stereo unspecified) | 39.3
* C=C(CN(C)C)C(=O)c1ccccc1OC | 63.2
* CC(C)C1=Cc2ccc3c(c2C(=O)C1=O)CCCC3 | 26.6
* COc1ccc(Sc2[nH]c(C=O)c3ccccc23)cc1 | 11.2
* CN(C)CC1(C)CC/C(=C\c2ccc(Cl)cc2)C1=O (stereo unspecified) | 54.6

====

# Tested on: CAKI-1 renal
# TEST: NCI tumour cell line growth inhibition, 48 h
Where a SMILES comes first, the peptide text is derived from it. [ ]: non-standard residue; d: D form. The star is where a group is joined. ξ: configuration not given here. ξD = NC(CC(=O)O)C(=O)O; Boc = CC(C)(C)OC(=O)*; Aib = CC(C)(N)C(=O)O; OBn = c1ccc(CO*)cc1
TGI for assorted molecules
READOUT_TYPE: TGI

* CC(C)C1=Cc2ccc3c(c2C(=O)C1=O)CCCC3 | 2.15 µM
* COc1ccc2c(n1)Sc1nc3ccccc3nc1N2 | > 100 µM
* C[C@]12CC[C@H]3[C@@H](CC=C4C[C@@H](O)CC[C@@]43C)[C@@H]1C/C(=C\c1ccncc1)[C@@H]2O | 57.4 µM
* CN1CCN(C)C1c1ccc(C2N(C)CCN2C)cc1 | > 100 µM
* COc1cccc(/C=N\NC(=O)c2ccncc2)c1O | 17.6 µM
* CC(C)(C)OC(=O)NC(CC(=O)OCc1ccccc1)C(=O)NC(C)(C)C(N)=O (configuration not stated) (Boc-[ξD](OBn)-[Aib]-NH2) | > 100 µM
* Cn1cnc([N+](=O)[O-])c1S(=O)(=O)Oc1ccc(Cl)cc1 | 3.51 µM
* O=C1N[C@H]2C(=O)c3c(Br)sc(Br)c3[C@H]2O1 | 9.81 µM
* CC1(C)CN(CC(=O)O)CC(Cc2ccc(OCC(=O)O)cc2)N(CC(=O)O)CC(C)(C)SS1 (configuration not stated) | > 100 µM
* Oc1nc(N2CCOCC2)sc1/C=C1\C=Nc2ccccc21 | > 100 µM
* O=S1Nc2cccc(C(F)(F)F)c2S1 (configuration not stated) | > 100 µM
* O=C(Nc1ccc(Cl)c(C(F)(F)F)c1)Nc1ccc(-c2cccnc2)cc1N1CCC(CO)CC1 | 16 µM
* COc1ccc(OC)c(N2CC(O)=C(c3nc4ccccc4s3)C2=N)c1 | > 100 µM
* CCOC(=O)c1cc(=O)c2cccc3c2n1CCS3 | > 100 µM
* COc1cccc(/C=C2\CCC(CN(C)C)C2=O)c1 (configuration not stated) | 15.7 µM
* Cc1cc(C)n(-c2nc(-n3nc(C)cc3C)nc(-n3nc(C)cc3C)n2)n1 | > 100 µM
* C=CC12CCCCC1CC(C(=O)OC)=C(O)C2 (configuration not stated) | > 100 µM
* c1ccc(CSC(SCc2ccccc2)c2cccc3ccccc23)cc1 | > 10 µM
* CN1CCc2ccccc2C1Cc1ccccc1NC(=O)c1sc2ccccc2c1Cl (configuration not stated) | > 100 µM
* COCN1C(=O)[C@@H]2C[C@@H](O)CN2C(=O)c2ccccc21 | > 100 µM
* N#CC(Sc1ccccc1)C(N)=O (configuration not stated) | > 100 µM
* CCCCCCOC(=O)CC1=C(C)/C(=C/c2[nH]c(-c3ccc[nH]3)cc2OC)N=C1C | 1.12 µM
* CC(NNC(=O)c1ccncc1)c1ccccc1 (configuration not stated) | > 100 µM
* CCCCCCCCCCC/C=C(/C(=O)CCCO[Si](C)(C)C(C)(C)C)C(=O)OC | > 100 µM
* CC(C)(C)c1cc(C[P+](c2ccccc2)(c2ccccc2)c2ccccc2)cc(C(C)(C)C)c1O | 8.7 µM
* CCN1/C(=C/C(C)=C/c2sc3ccc4ccccc4c3[n+]2CC)Sc2ccc3ccccc3c21 | 1.15 µM
* O=Cc1ccc(-c2ccc(-c3nc4ccccc4s3)cc2)o1 | > 100 µM
* O=C1OC2(c3ccc(O)cc3Oc3cc(O)ccc32)c2cccc3cccc1c23 | > 100 µM
* CC(=O)NC(CCCNC(=O)N(C)N=O)C(=O)NCc1ccccc1 (configuration not stated) | > 100 µM
* Cc1c(-c2ccccc2)c(C#N)c2nnn(-c3ccc(Cl)cc3)c(=O)n12 | > 100 µM
* CCOc1ccccc1/C=N\N=C(N/N=C/c1ccccc1OCC)N/N=C/c1ccccc1OCC | > 100 µM
* O=C1NC(=O)C(CCC(=O)c2cccc3ccccc23)C(=O)N1 | > 100 µM
* CCOC(=O)c1ccc(N2NC(=O)/C(=C/c3ccc([N+](=O)[O-])o3)C2=O)cc1 | 13.6 µM
* c1cc[c]([Ge]([O]c2cccc3cccnc23)([c]2ccccc2)[c]2ccccc2)cc1 | 28.9 µM
* Cn1cnc([N+](=O)[O-])c1Sc1n[nH]c(-c2ccc(Cl)cc2)n1 | 78.8 µM
* CCN(CC)CCCNc1ccc([N+](=O)[O-])c2nc3ccccc3c(N)c12 | > 10 µM
* Cc1nc2ccc(Cl)cc2c2c1CCN2c1ccc(F)cc1 | > 100 µM
* O=C1CN=C(c2ccc[nH]2)c2cc(Cl)ccc2N1 | > 100 µM
* C/C(=N\O)c1ccc(OCc2cc(C(F)(F)F)cc(C(F)(F)F)c2)cc1 | > 100 µM
* Cc1csc2nc(-c3cccc([N+](=O)[O-])c3)c(/C=N/N=C(N)N)n12 | 8.71 µM
* COc1ccc(OC2(c3cc(OC)ccc3OC)OC(=O)c3ccccc32)cc1 (configuration not stated) | > 100 µM
* Cc1[nH]c2ccccc2c1CO | 42.2 µM
